# assayTarget: His6-TEV-PPARγ-(234-505) (Homo sapiens, UniProt P37231)
# Construct: The His6-TEV-PPARγ-(234-505) protein for assay was expressed and purified; TEV cleavage site (N); made in house
# Sequence (P37231 234-505): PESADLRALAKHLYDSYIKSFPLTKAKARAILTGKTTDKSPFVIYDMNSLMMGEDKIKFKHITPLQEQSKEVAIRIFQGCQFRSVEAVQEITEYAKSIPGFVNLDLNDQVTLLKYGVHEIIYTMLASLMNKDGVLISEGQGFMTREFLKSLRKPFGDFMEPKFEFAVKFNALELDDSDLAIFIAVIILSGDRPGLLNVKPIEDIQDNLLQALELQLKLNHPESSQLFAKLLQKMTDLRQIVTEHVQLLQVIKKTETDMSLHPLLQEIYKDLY
# testSummary: TR-FRET Assay to Measure Co-R Peptide Recruitment to PPARγ
# Type: biochemical
# appliedConditions: Co-R peptide (SMRT-ID2) recruitment; top final concentration 20 μM; read-out: TR-FRET i-Ag; AC50
metric: AC50 (nM)

INSERT INTO assay_data (molecule, reading) VALUES
  ('COc1cc(-c2cc(C(=O)N3CC[C@H](C(=O)NC4CCC5CCCN5C4)CC34CC4)n[nH]2)c(F)cn1 (single isomer, unassigned) [Example 376-B]', 1600),
  ('COc1cc(-c2cc(C(=O)N3CCC(C(=O)N[C@H]4CC[C@@](O)(C(F)(F)F)CC4)CC34COC4)n[nH]2)c(F)cn1 (stereo partly shown)', 113),
  ('COc1cc(-c2cc(C(=O)N3CCC(C(=O)NCC4CC(C)(C)O4)CC3)n[nH]2)c(Cl)cn1 (racemic)', 483),
  ('COc1cc(-c2cc(C(=O)N3CCC(C(=O)NCC4CCC=CO4)CC3)n[nH]2)c(Cl)cn1 (stereo not shown)', 296),
  ('COc1cc(-c2cc(C(=O)N3CCC(C(=O)NCc4cn5c(C)cccc5n4)CC3)n[nH]2)c(Cl)cn1', 259),
  ('COc1cc(-c2cc(C(=O)N3CCC(C(=O)Nc4cccc5[nH]ccc45)CC3)n[nH]2)c(Cl)cn1', 78.4),
  ('COc1cc(-c2cc(C(=O)N3CCC(C(=O)NCC4CCn5c(C)nnc5C4)CC34CC4)n[nH]2)c(F)cn1 (single isomer, unassigned) [Example 346-B]', 1120),
  ('COc1cc(-c2cc(C(=O)N3CC[C@H](C(=O)NCC4CCS(=N)(=O)C4(C)C)CC34CC4)n[nH]2)c(F)cn1 (mixture of isomers)', 696),
  ('COc1cc(-c2cc(C(=O)N3CC[C@H](C(=O)NCc4cccc(Cl)c4)CC34CCC4)n[nH]2)c(Cl)cn1 (single isomer, unassigned)', 92.4),
  ('CCc1cc(-c2cc(C(=O)N3CCC(C(=O)NCc4ncc(F)cc4Cl)CC34CC4)n[nH]2)c(F)cn1 (racemic) [Example 483]', 6.2),
  ('COc1cc(-c2cc(C(=O)N3CCC(C(=O)NC4CC(=O)N(c5ccccc5)C4)CC3)n[nH]2)c(Cl)cn1 (stereo not shown)', 233),
  ('COc1cc(-c2cc(C(=O)N3CC[C@H](C(=O)NC4CCC(O)(C(F)(F)F)C(O)C4)CC34CC4)n[nH]2)c(F)cn1 (single isomer, unassigned) [Example 474-F]', 71.6),
  ('COc1cc(-c2cc(C(=O)N3CC[C@H](C(=O)NC(C)C45CCC(O)(CC4)CC5)CC34CC4)n[nH]2)c(F)cn1 (single isomer, unassigned)', 160),
  ('COc1cc(-c2cc(C(=O)N3CCC(C(=O)NCc4cccc(C(F)(F)F)n4)CC3)n[nH]2)c(Cl)cn1', 273),
  ('COc1cc(-c2cc(C(=O)N3[C@@H]4CC[C@H]3C[C@H](C(=O)NC3CCC(C(F)(F)F)OC3)C4)n[nH]2)c(F)cn1 (single isomer, unassigned)', 895),
  ('COc1cc(-c2cc(C(=O)N3CC[C@H](C(=O)N[C@@H]4CN(c5ccc(C)nc5)C[C@H]4F)CC34CC4)n[nH]2)c(F)cn1', 24),
  ('COc1cc(-c2cc(C(=O)N3CCC(C(=O)N[C@@H]4C[C@H]4c4ccccc4)CC3)n[nH]2)c(Cl)cn1', 292),
  ('COc1cc(-c2cc(C(=O)N3CCC(C(=O)NC4CCN(c5ccccc5)C4)CC3)n[nH]2)c(Cl)cn1 (stereo not shown)', 56.2),
  ('COc1cc(-c2cc(C(=O)N3CC[C@H](C(=O)NCc4ccncc4C(F)(F)F)CC34CC4)[nH]n2)c(F)cn1', 7),
  ('COc1cc(-c2cc(C(=O)N3CC[C@H](C(=O)NCc4cn5c(n4)COCC5)CC34CC4)n[nH]2)c(F)cn1', 36.4),
  ('COc1cc(-c2cc(C(=O)N3CCC(C(=O)NCc4cc(C(F)F)on4)CC3)n[nH]2)c(Cl)cn1', 327),
  ('COc1cc(-c2cc(C(=O)N3[C@@H]4CC[C@H]3C[C@H](C(=O)NCc3ccc5c(c3)c(F)nn5C)C4)n[nH]2)c(F)cn1', 3.3),
  ('COc1cc(-c2cc(C(=O)N3CC[C@H](C(=O)NC(C)c4cc5n(n4)CCN(C)C5)CC34CC4)n[nH]2)c(F)cn1 (single isomer, unassigned) [Example 475-B]', 102),
  ('Cc1cc(-c2cc(C(=O)N3CC[C@@H](C(=O)NC4CCC5(CCO5)CC4)CC34CC4)n[nH]2)ncn1 (mixture of isomers)', 18000),
  ('COc1cc(-c2cc(C(=O)N3CC[C@H](C(=O)NCc4nc(C)nn4C(C)C)CC34CC4)n[nH]2)c(F)cn1', 443);

These measurements were taken from patent US12606541B2.
